molecular target: bovine cardiac myofibrils (full-length cardiac myosin ATPase in the native sarcomere) (Bos taurus (Bovine), UniProt Q9BE39); assay: Skinned bovine cardiac myofibril ATPase assay (PK/LDH-coupled); assay type: biochemical; details: Ca2+ activating to 75% of maximal rate, concentration giving 15% inhibition
Sequence (Q9BE39 whole entry): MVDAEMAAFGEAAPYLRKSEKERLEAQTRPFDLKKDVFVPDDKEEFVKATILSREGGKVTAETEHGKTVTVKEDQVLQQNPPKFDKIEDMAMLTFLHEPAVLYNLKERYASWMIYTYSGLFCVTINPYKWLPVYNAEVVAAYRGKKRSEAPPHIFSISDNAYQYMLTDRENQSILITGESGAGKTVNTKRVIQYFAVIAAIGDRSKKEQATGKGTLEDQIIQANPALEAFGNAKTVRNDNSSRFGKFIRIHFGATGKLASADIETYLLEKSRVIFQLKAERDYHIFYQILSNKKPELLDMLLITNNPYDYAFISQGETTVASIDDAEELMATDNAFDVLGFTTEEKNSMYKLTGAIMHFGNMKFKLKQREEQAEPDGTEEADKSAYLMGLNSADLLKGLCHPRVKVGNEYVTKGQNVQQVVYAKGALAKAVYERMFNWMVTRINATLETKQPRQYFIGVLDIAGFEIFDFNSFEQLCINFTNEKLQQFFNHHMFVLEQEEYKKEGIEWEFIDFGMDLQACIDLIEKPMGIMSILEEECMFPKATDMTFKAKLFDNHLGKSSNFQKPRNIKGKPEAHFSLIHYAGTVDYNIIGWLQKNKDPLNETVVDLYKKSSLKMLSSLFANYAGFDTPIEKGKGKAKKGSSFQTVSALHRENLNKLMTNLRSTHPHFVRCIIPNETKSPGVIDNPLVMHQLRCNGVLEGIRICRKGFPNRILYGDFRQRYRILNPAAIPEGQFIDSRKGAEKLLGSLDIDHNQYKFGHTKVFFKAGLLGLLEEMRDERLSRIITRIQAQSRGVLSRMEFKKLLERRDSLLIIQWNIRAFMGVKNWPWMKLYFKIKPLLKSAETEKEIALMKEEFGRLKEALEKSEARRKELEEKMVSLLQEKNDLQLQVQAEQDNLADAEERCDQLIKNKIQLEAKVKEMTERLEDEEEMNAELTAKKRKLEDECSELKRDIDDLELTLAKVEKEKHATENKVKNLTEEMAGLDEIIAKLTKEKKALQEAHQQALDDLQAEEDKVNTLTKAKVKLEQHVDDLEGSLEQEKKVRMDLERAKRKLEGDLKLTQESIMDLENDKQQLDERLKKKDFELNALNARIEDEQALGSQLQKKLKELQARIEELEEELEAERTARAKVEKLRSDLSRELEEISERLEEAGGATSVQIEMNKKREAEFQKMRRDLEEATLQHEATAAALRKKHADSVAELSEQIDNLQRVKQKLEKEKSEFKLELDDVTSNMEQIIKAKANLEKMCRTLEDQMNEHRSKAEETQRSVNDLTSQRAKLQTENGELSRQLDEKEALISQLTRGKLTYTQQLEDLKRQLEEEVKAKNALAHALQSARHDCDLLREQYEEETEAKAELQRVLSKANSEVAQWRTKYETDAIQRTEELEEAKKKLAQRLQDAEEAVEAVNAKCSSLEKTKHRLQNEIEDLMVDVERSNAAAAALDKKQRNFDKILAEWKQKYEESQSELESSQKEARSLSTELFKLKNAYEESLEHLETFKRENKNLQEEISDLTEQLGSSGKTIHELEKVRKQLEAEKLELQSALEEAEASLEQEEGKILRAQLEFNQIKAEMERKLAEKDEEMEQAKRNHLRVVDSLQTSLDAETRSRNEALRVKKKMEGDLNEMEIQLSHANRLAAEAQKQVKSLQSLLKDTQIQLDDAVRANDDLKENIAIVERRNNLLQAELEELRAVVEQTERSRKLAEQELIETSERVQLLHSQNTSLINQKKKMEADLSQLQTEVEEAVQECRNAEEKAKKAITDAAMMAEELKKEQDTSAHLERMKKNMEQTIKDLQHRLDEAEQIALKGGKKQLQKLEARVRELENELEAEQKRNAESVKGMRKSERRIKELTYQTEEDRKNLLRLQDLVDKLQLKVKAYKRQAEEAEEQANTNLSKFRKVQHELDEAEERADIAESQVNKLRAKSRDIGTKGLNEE
Sequence (P85100 whole entry partner): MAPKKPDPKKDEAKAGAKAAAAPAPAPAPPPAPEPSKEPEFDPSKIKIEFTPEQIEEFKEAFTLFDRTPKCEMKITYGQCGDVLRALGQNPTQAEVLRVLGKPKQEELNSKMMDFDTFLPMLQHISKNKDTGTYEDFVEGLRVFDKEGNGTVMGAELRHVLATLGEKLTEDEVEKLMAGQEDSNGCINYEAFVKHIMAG
Sequence (Q3SZE5 whole entry partner): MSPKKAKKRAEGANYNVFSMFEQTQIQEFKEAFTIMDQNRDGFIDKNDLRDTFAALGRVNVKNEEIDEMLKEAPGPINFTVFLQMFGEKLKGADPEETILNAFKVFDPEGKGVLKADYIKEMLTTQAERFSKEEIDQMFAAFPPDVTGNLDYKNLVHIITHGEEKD
Given measured CDMF75 IC15, output fulfilled if it is greater than or equal to 1000 nM and not fulfilled if not.

CCc1nc(-c2ccc3c(c2)OC[C@H]3NC(=O)c2cnn(C)c2)no1 : not fulfilled
COCCc1nc(-c2ccc3c(c2)CC[C@H]3NC(=O)c2cnn(C)c2)no1 : fulfilled
O=C(N[C@@H]1CCc2cc(-c3noc(C4CC4)n3)ccc21)OCC1CC1 : not fulfilled
CCc1nc(-c2ccc3c(c2)CC[C@H]3NC(=O)c2nnc(C)o2)no1 [Compound 617] : not fulfilled
CCc1nc(-c2ccc3c(c2)CC[C@H]3NC(=O)OC2COC2)no1 : not fulfilled

Lab note: next compound to report on.
[Q] # check: CDMF75 IC15 of CCc1nc(-c2cc(O)c3c(c2)CC[C@H]3NC(=O)c2cnn(C)c2)no1 is greater than or equal to 1000 nM
[A] not fulfilled

---

I'd be grateful if you could share measured pIC50 for these entries.
Target: bovine cardiac myofibrils (full-length cardiac myosin ATPase in the native sarcomere) (Bos taurus (Bovine), UniProt Q9BE39)
Assay: Skinned bovine cardiac myofibril ATPase assay (PK/LDH-coupled)
Type: biochemical
Conditions: Ca2+ activating to 75% of maximal rate, read-out: CDMF75 IC50
Experimental: To evaluate the effect of compounds on the ATPase activity of full-length cardiac myosin in the context of the native sarcomere, skinned myofibril assays were performed. […] Small molecule agents were assessed for their ability to inhibit the steady-state ATPase activity of bovine cardiac myofibrils using pyruvate kinase and lactate dehydrogenase (PK/LDH)-coupled enzyme system. This assay regenerates myosin-produced ADP into ATP by oxidizing NADH, producing an absorbance change at 340 nm. […]
Numbers only, as −log10 of the molar value.

Look over these answered cases.
CCc1nc(-c2ccc3c(c2)CC[C@H]3NC(=O)OC)no1 : 6.15
Cc1cc(C(=O)NC2CCc3cc(-c4nc(C(F)F)no4)ccc32)ccn1 (centres unmarked) : 4.75
Cc1ncoc1C(=O)N[C@@H]1CCc2cc(-c3noc(C(C)C)n3)ccc21 : 5.92
Cc1nc(-c2ccc3c(c2)OCC3NC(=O)c2oc(C)nc2C)no1 (centres unmarked) : 5.08

Now for the compound whose pIC50 we want.
compound Cc1conc1C(=O)NC1CCc2cc(-c3noc(C(F)F)n3)ccc21 (centres unmarked) , pIC50 observed: 5.20

---

I'd be grateful if you could share measured IC50 for these entries.
target: bovine cardiac myofibrils (full-length cardiac myosin ATPase in the native sarcomere) (Bos taurus (Bovine)); experiment: Skinned bovine cardiac myofibril ATPase assay (PK/LDH-coupled); details: Ca2+ activating to 75% of maximal rate, read-out: CDMF75 IC50
Give bare numbers, in µM.

Below are 2 molecules. Give each one its IC50.
1. CCc1nc(-c2ccc3c(c2)CC[C@H]3NC(=O)c2ccnc(C(C)(C)O)c2)no1
2. Cc1csc(C(=O)NC2CCc3cc(-c4noc(C)n4)ccc32)n1 (stereo not shown)

[A]
8.6
10.1

Below are 2 molecules. Give each one its IC50.
1. Cc1ncoc1C(=O)N[C@@H]1COc2cc(-c3noc(C4(C)CC4)n3)ccc21
2. Cc1nc(-c2ccc3c(c2)CC[C@H]3NC(=O)OCC(C)C)no1

[A]
[1.4, 3.1]

---

biological target: bovine cardiac myofibrils (full-length cardiac myosin ATPase in the native sarcomere) (Bos taurus (Bovine), UniProt Q9BE39); assay: Skinned bovine cardiac myofibril ATPase assay (PK/LDH-coupled); conditions: Ca2+ activating to 75% of maximal rate, read-out: CDMF75 IC50
MEASURE: pIC50
Give bare numbers, as −log10 of the molar value.

CCc1nc(-c2ccc3c(c2)CC[C@H]3NC(=O)c2ccn(CCO)c(=O)c2)no1 : 5.24
Cc1nocc1C(=O)NC1CCc2cc(-c3noc(C(F)F)n3)ccc21 (centres unmarked) : 5.82

Below are 5 compounds. Give each one its pIC50.
1. Cc1n[nH]cc1C(=O)N[C@@H]1CCc2cc(-c3noc(C(C)C)n3)ccc21
2. CCc1cc(-c2ccc3c(c2)OC[C@H]3NC(=O)c2nnn(C)n2)no1
3. CCc1nc(-c2ccc3c(c2)C[C@H](O)[C@H]3NC(=O)c2cnn(C)c2)no1
4. Cc1n[nH]cc1C(=O)N[C@@H]1CCc2cc(-c3noc(C(F)F)n3)ccc21
5. CCc1nc(-c2ccc3c(c2)CC[C@H]3NC(=O)c2coc(CS(C)(=O)=O)n2)no1

[A]
1: 5.80; 2: 5.66; 3: 4.41; 4: 5.92; 5: 4.41

---

molecular target: bovine cardiac myofibrils (full-length cardiac myosin ATPase in the native sarcomere) (Bos taurus (Bovine), UniProt Q9BE39); assay: Skinned bovine cardiac myofibril ATPase assay (PK/LDH-coupled); assay type: biochemical; conditions: Ca2+ activating to 75% of maximal rate, concentration giving 15% inhibition
I'd be grateful if you could share measured CDMF75 IC15 for these entries.
Answers are plain numbers, in nM.

Below are 2 molecules. Give each one its CDMF75 IC15.
1. Cc1ncc(C(=O)NC2CCc3cc(-c4noc(C(F)F)n4)ccc32)n1C (centres unmarked)
2. CCc1nc(-c2ccc3c(c2)CCC3C(=O)Nc2ccnc(C)c2)no1 (centres unmarked)

[A]
1. 1100
2. 2000

---

I'd be grateful if you could share measured pIC50 for these entries.
molecular target: bovine cardiac myofibrils (full-length cardiac myosin ATPase in the native sarcomere) (Bos taurus (Bovine)); experiment: Skinned bovine cardiac myofibril ATPase assay (PK/LDH-coupled); conditions: Ca2+ activating to 75% of maximal rate, read-out: CDMF75 IC50
Answers are plain numbers, as −log10 of the molar value.

Cc1oncc1C(=O)N[C@@H]1CCc2cc(-c3noc(C(F)F)n3)ccc21 [Compound 72] : 6.00

Below are 2 molecules. Give each one its pIC50.
1. CCc1nc(-c2ccc3c(c2)CC[C@H]3NC(=O)OCCOC)no1 [Compound 324]
2. COCc1nc(-c2ccc3c(c2)CC[C@H]3NC(=O)c2cccc([C@H](C)O)c2)no1 [Compound 728]

[A]
5.49
5.42

---

Molecular target: bovine cardiac myofibrils (full-length cardiac myosin ATPase in the native sarcomere) (Bos taurus (Bovine), UniProt Q9BE39)
Test: Skinned bovine cardiac myofibril ATPase assay (PK/LDH-coupled)
Format: biochemical
Details: Ca2+ activating to 75% of maximal rate, concentration giving 15% inhibition
Method: To evaluate the effect of compounds on the ATPase activity of full-length cardiac myosin in the context of the native sarcomere, skinned myofibril assays were performed. […] Small molecule agents were assessed for their ability to inhibit the steady-state ATPase activity of bovine cardiac myofibrils using pyruvate kinase and lactate dehydrogenase (PK/LDH)-coupled enzyme system. This assay regenerates myosin-produced ADP into ATP by oxidizing NADH, producing an absorbance change at 340 nm. […]
I'd be grateful if you could share measured CDMF75 IC15 for these entries.
Answers are plain numbers, in nM.

Look over these answered cases.
Cc1cccnc1C(=O)NC1CCc2cc(-c3noc(C(F)F)n3)ccc21 (centres unmarked) : 4800
Cc1ccnc(C(=O)NC2CCc3cc(-c4noc(C(F)F)n4)ccc32)c1 (centres unmarked) : 900

Below are 3 compounds. Give each one its CDMF75 IC15.
1. COCCCn1cc(C(=O)N[C@@H]2CCc3cc(-c4noc(C5CC5)n4)ccc32)cn1
2. Cc1cc(C(=O)NC2CCc3cc(-c4noc(C(F)F)n4)ccc32)n(C)n1 (centres unmarked)
3. CCc1noc(-c2ccc3c(c2)CC[C@H]3NC(=O)c2ccnn2C)n1

[A]
1. 3500
2. 800
3. 400

Below are 6 compounds. Give each one its CDMF75 IC15.
1. Cn1cc(C(=O)NC2COc3cc(-c4noc(C(F)F)n4)ccc32)cn1 (centres unmarked)
2. CCc1nc(-c2ccc3c(c2)CC[C@H]3NC(=O)c2cnn(C3CN(S(C)(=O)=O)C3)c2)no1
3. CCc1nc(-c2ccc3c(c2)CC[C@H]3NC(=O)OCC2CN(C(C)=O)C2)no1
4. O=C(N[C@@H]1CCc2cc(-c3noc(C(F)F)n3)ccc21)OC1CCC1
5. CCc1nc(-c2ccc3c(c2)CC[C@H]3NC(=O)c2cncc(C)c2)no1
6. CC(=O)N[C@@H]1COc2cc(-c3noc(C4(C)CC4)n3)ccc21

[A]
1: 700; 2: 2900; 3: 21600; 4: 900; 5: 500; 6: 1300

---

target: bovine cardiac myofibrils (full-length cardiac myosin ATPase in the native sarcomere) (Bos taurus (Bovine), UniProt Q9BE39); test: Skinned bovine cardiac myofibril ATPase assay (PK/LDH-coupled); type: biochemical; details: Ca2+ activating to 75% of maximal rate, concentration giving 15% inhibition
MEASURE: CDMF75 IC15 (nM)
Answers are plain numbers, in nM.

Look over these answered cases.
COC(=O)N[C@@H]1COc2cc(-c3noc(C4CC4)n3)ccc21 : 500
Cc1noc(-c2ccc3c(c2)CC[C@H]3NC(=O)c2cnn(C)c2)n1 : 2800
Cc1c(C(=O)N[C@@H]2CCc3cc(-c4noc(C5CC5)n4)ccc32)cnn1C : 500
CCc1nc(-c2ccc3c(c2)CC[C@H]3NC(=O)c2ccnnc2C)no1 : 3100

compound Cc1ncc(C(=O)NC2CCc3cc(-c4noc(C(F)F)n4)ccc32)s1 (centres unmarked) , CDMF75 IC15 observed: 1000
